Record: compiled IC50 on UniProtKB P23743 from multiple reports.
The figure you give is taken to be in µM; do not add the unit.

# value of IC50, UniProtKB P23743, item CC[C@H]1CN(C(C)c2ccc(F)cc2OC)[C@H](CC)CN1c1cc(=O)n(C)n2cc(CC#N)nc12 (some centres unmarked) = 6.42

GET /values?item= CC[C@H]1CN(C(C)c2ncccn2)[C@H](CC)CN1c1cc(=O)n(C)c2cn(CC#N)nc12 (some centres unmarked) &system= UniProtKB P23743 returns IC50: 0.015

IC50 for UniProtKB P23743 with input CC[C@H]1CN(C(C)c2ccc3nccnc3c2)[C@H](CC)CN1c1cc(=O)n(CCO)c2cn(CC#N)nc12 (some centres unmarked) equals 12.2

For CCC(C#N)(CC)c1nnc(-c2ccc3c(c2)N(Cc2ccc(-c4ccc(OC(F)(F)F)cn4)cc2)C(=O)[C@@H](N)CS3(=O)=O)o1 on UniProtKB P23743, measured IC50 was 1.53

// returns IC50 for CCn1c(CC#N)nc2c(N3C[C@@H](C)N(C(C)c4ccc5c(c4)OC(F)(F)O5)C[C@@H]3C)nc(=O)n(C)c21 (some centres unmarked) with UniProtKB P23743; value = 55.6

Field IC50 (UniProtKB P23743), entry CCn1c(CC#N)nc2c(N3C[C@@H](C)N(C(C)c4ccc5c(=O)cc(C)n(C)c5c4)C[C@@H]3C)nc(=O)n(C)c21 (some centres unmarked) : 101

# IC50 measured on UniProtKB P23743 for item CC#CCn1cc2c(n1)c(N1C[C@@H](C)N(C(C)c3ccc4c(c3)OC(F)(F)O4)C[C@@H]1C)cc(=O)n2C (some centres unmarked) = 1.18

Recorded IC50 for CCn1c(CC#N)nc2c(N3C[C@@H](C)N(C(C)c4ccc(C(F)(F)F)cc4)C[C@@H]3C)nc(=O)n(C)c21 (some centres unmarked) on UniProtKB P23743 was 25.9

Record N[C@H]1CS(=O)(=O)c2ccc(-c3nnc(C4(N)CCCCC4)o3)cc2N(Cc2ccc(-c3noc(C(F)(F)F)n3)cc2)C1=O / UniProtKB P23743, IC50 recorded as 0.0946

Reported UniProtKB P23743 IC50 for item CC#CCc1cn2c(n1)c(N1C[C@@H](CC)N(C(C)c3ccc4nc(C)sc4c3)C[C@@H]1C)cc(=O)n2C (some centres unmarked) was 0.263

Field IC50 (system: UniProtKB P23743) for entry CC[C@H]1CN(C(C)c2c(F)cncc2F)[C@H](CC)CN1c1cc(=O)n(C)c2cn(CC#N)nc12 (some centres unmarked) = 0.114

Per the reported UniProtKB P23743 data, CN1CCCC(F)(c2nnc(-c3ccc4c(c3)N(Cc3ccc(-c5noc(C(F)(F)F)n5)cc3)C(=O)[C@@H](N)CS4(=O)=O)o2)C1 (some centres unmarked) has IC50 of 0.227

Form field, IC50 with UniProtKB P23743, item CC(c1ccc2nc(C(F)(F)F)cnc2c1)N1C[C@H](C)N(c2cc(=O)n(C)c3cn(CC#N)nc23)C[C@H]1C (some centres unmarked) : 61

So the reported IC50 for CC(c1ccc2nccnc2c1)N1C[C@H](C)N(c2cc(=O)n(C)c3cn(C(=O)C4CC4)nc23)C[C@H]1C (some centres unmarked) , on UniProtKB P23743, turned out to be 5.9

Entry CC[C@H]1CN(C(C)c2ccc3c(c2)NCCO3)[C@H](CC)CN1c1cc(=O)n(C)c2cn(CC#N)nc12 (some centres unmarked) ; assay system UniProtKB P23743; IC50 recorded at 1.28

# CC[C@H]1CN(C(C)c2ccc(C)cn2)[C@H](CC)CN1c1cc(=O)n(C)c2cn(CC#N)nc12 (some centres unmarked) with UniProtKB P23743: IC50 is 0.029
